Data provenance is ChEMBL document CHEMBL1129866.

# MEASUREMENT TARGET: UniProt P00734
EXPERIMENTAL ENDPOINT: Ki (nM)

Data request: Item CC(=O)N[C@H](Cc1ccccc1)C(=O)N1CCC[C@H]1C(=O)N[C@@H](CCCn1ccnc1[N+](=O)[O-])B1O[C@@H]2CC3CC(C3(C)C)[C@]2(C)O1 (some centres undefined) has what recorded Ki?
Data returned: 650

(P) CC(=O)N[C@H](Cc1ccccc1)C(=O)N1CCC[C@H]1C(=O)N[C@@H](CCCNc1ncccn1)B1O[C@@H]2CC3CC(C3(C)C)[C@]2(C)O1 (some centres undefined)
(Q) CC(=O)N[C@H](Cc1ccccc1)C(=O)N1CCC[C@H]1C(=O)N[C@@H](CCCn1nnnc1N)B1O[C@@H]2CC3CC(C3(C)C)[C@]2(C)O1 (some centres undefined)
(R) CCCCS(=O)(=O)N[C@H](Cc1ccccc1)C(=O)N1CCC[C@H]1C(=O)N[C@@H](CCCSc1ncccn1)B1O[C@@H]2CC3CC(C3(C)C)[C@]2(C)O1 (some centres undefined)
Data request: Endpoint returns the given molecules ordered by ascending Ki. Field: ranking. Enter the labels in the order requested.
Data returned: R, Q, P

---

Below are compounds with their Ki as measured on Serine protease 1 (Homo sapiens, UniProt P07477).
Sequence (P07477 whole entry): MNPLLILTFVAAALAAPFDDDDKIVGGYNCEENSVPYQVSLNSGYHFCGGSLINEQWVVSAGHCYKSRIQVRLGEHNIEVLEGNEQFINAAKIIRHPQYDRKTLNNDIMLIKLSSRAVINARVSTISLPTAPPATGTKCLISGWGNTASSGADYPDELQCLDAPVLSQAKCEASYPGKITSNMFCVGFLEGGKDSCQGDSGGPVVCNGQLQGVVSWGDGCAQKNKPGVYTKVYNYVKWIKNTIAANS

The examples below pair each entry with its known result.
Data request: Item CC(=O)N[C@H](Cc1ccccc1)C(=O)N1CCC[C@H]1C(=O)N[C@@H](CCCn1ncnc1[N+](=O)[O-])B1O[C@@H]2CC3CC(C3(C)C)[C@]2(C)O1 (some centres not stated) has what recorded Ki?
Data returned: > 1200 nM

Data request: Item CCCCS(=O)(=O)N[C@H](Cc1ccccc1)C(=O)N1CCC[C@H]1C(=O)N[C@@H](CCCn1ccnc1[N+](=O)[O-])B1O[C@@H]2CC3CC(C3(C)C)[C@]2(C)O1 (some centres not stated) has what recorded Ki?
Data returned: > 1200 nM

Data request: Item CC(=O)N[C@H](Cc1ccccc1)C(=O)N1CCC[C@H]1C(=O)N[C@@H](CCCSc1ncccn1)B1O[C@@H]2CC3CC(C3(C)C)[C@]2(C)O1 (some centres not stated) has what recorded Ki?
Data returned: > 1200 nM

Data request: Item CC(=O)N[C@H](Cc1ccccc1)C(=O)N1CCC[C@H]1C(=O)N[C@@H](CCCn1ccnc1N)B1O[C@@H]2CC3CC(C3(C)C)[C@]2(C)O1 (some centres not stated) has what recorded Ki?
Data returned: 20 nM

Data request: Item CC(=O)N[C@H](Cc1ccccc1)C(=O)N1CCC[C@H]1C(=O)N[C@@H](CCCn1nnnc1N)B1O[C@@H]2CC3CC(C3(C)C)[C@]2(C)O1 (some centres not stated) has what recorded Ki?
Data returned: > 1200 nM

***
Data request: Item CCCCS(=O)(=O)N[C@H](Cc1ccccc1)C(=O)N1CCC[C@H]1C(=O)N[C@@H](CCCn1ccnc1N)B1O[C@@H]2CC3CC(C3(C)C)[C@]2(C)O1 (some centres not stated) has what recorded Ki?
Data returned: 40 nM

Data request: Item CC(=O)N[C@H](Cc1ccccc1)C(=O)N1CCC[C@H]1C(=O)N[C@@H](CCCNc1ccccn1)B1O[C@@H]2CC3CC(C3(C)C)[C@]2(C)O1 (some centres not stated) has what recorded Ki?
Data returned: > 1200 nM

---

Below are compounds with their Ki as measured on Prothrombin (Homo sapiens, UniProt P00734).
EXPERIMENTAL ENDPOINT: Ki (nM)

Data request: Item CC(=O)N[C@H](Cc1ccccc1)C(=O)N1CCC[C@H]1C(=O)N[C@@H](CCCNc1ccnc(N)n1)B1O[C@@H]2CC3CC(C3(C)C)[C@]2(C)O1 (stereo partly drawn) has what recorded Ki?
Data returned: 150

(1) CCCCS(=O)(=O)N[C@H](Cc1ccccc1)C(=O)N1CCC[C@H]1C(=O)N[C@@H](CCCn1ccnc1N)B1O[C@@H]2CC3CC(C3(C)C)[C@]2(C)O1 (stereo partly drawn)
(2) CC(=O)N[C@H](Cc1ccccc1)C(=O)N1CCC[C@H]1C(=O)N[C@@H](CCCNc1ccccn1)B1O[C@@H]2CC3CC(C3(C)C)[C@]2(C)O1 (stereo partly drawn)
Data request: Parameter check: reported Ki is higher for which label, 1 or 2 ? Lab log: write the label of the selected item as the result.
Data returned: 2
(2: 230 nM, 1: 3.2 nM)

---

Below are molecules with their pKi as measured on Coagulation factor X (Homo sapiens).
Sequence (P00742 41-179 limits assumed): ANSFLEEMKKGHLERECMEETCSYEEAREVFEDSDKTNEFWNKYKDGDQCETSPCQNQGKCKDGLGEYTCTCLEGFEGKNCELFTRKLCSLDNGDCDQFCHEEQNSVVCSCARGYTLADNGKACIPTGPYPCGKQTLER
Sequence (P00742 235-488 limits assumed): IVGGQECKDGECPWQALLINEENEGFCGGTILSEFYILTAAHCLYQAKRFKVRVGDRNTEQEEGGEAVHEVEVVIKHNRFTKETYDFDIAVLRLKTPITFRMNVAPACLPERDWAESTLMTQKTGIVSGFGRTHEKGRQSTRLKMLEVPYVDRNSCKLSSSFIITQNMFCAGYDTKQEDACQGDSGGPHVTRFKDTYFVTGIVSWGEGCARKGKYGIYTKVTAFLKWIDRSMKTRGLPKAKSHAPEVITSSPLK
pKi: −log10 of the molar value.

The examples below pair each entry with its known result.
Data request: Look up pKi with Coagulation factor X (Homo sapiens) for this molecule: CC(=O)N[C@H](Cc1ccccc1)C(=O)N1CCC[C@H]1C(=O)N[C@@H](CCCn1ccnc1)B1O[C@@H]2CC3CC(C3(C)C)[C@]2(C)O1 (some centres undefined)
Data returned: 5.22

Data request: Look up pKi with Coagulation factor X (Homo sapiens) for this molecule: CC(=O)N[C@H](Cc1ccccc1)C(=O)N1CCC[C@H]1C(=O)N[C@@H](CCCNc1cc(Cl)nc(N)n1)B1O[C@@H]2CC3CC(C3(C)C)[C@]2(C)O1 (some centres undefined)
Data returned: < 5.22

***
Data request: Look up pKi with Coagulation factor X (Homo sapiens) for this molecule: CC(=O)N[C@H](Cc1ccccc1)C(=O)N1CCC[C@H]1C(=O)N[C@@H](CCCNc1ccccn1)B1O[C@@H]2CC3CC(C3(C)C)[C@]2(C)O1 (some centres undefined)
Data returned: < 5.22

Data request: Look up pKi with Coagulation factor X (Homo sapiens) for this molecule: CCCCS(=O)(=O)N[C@H](Cc1ccccc1)C(=O)N1CCC[C@H]1C(=O)N[C@@H](CCCNc1cc(Cl)nc(N)n1)B1O[C@@H]2CC3CC(C3(C)C)[C@]2(C)O1 (some centres undefined)
Data returned: < 5.22
